Quick reference: % displacement (hIL-23R binding) of the listed items.
Biological target: T1, Nluc-IL23R fusion protein (human, UniProt Q5VWK5 22-629)
T1 construct: range 22-629; expressed with a secretion signal in HEK293 cells; used as crude membrane preparation; also called hIL-23R; human IL-23R; not shown: Nanoluc protein from the expression plasmid N1371 (Promega), N-terminal of IL-23R
T1 sequence (looked up): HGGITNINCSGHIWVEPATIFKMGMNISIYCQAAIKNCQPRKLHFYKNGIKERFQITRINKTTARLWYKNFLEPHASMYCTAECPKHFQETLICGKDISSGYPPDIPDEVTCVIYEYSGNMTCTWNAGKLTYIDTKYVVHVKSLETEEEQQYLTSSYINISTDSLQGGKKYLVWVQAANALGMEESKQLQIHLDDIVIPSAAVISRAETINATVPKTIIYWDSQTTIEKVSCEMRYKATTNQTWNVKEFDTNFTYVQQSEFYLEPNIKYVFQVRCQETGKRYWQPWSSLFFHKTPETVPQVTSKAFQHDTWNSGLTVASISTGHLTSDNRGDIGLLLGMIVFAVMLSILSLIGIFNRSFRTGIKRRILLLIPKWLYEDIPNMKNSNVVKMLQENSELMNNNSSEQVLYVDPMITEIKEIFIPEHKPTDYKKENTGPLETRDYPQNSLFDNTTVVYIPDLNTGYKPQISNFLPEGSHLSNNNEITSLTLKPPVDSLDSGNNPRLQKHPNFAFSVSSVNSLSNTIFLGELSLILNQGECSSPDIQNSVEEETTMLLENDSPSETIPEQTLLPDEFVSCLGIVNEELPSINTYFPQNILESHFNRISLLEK
Assay: BRET competition vs TAMRA-labelled peptide, Nluc-IL23R membranes
*1 amine or outer side, *2 acyl side, *3 side chain or, on linkers, in order; H or OH if unused. Bridges are numbered along the chain shown (N, C = ends). Where no end group is shown, it is not given here. [ ]: non-standard residue; d: D form. 4‑Aminomethyl‑phenylacetyl = 4-aminomethyl-phenylacetyl unit, its amine closes the lactam, O=C(Cc1ccc(CN[*:1])cc1)[*:2]; 2Nal = N[C@@H](Cc1ccc2ccccc2c1)C(=O)O; AEF = NCCOc1ccc(C[C@H](N)C(=O)O)cc1; 3Pal = N[C@@H](Cc1cccnc1)C(=O)O; αMeL = CC(C)C[C@](C)(N)C(=O)O; Dab = NCC[C@H](N)C(=O)O
Write down the numeric answer in % and omit the unit.

Recorded results for 3 binders are shown here.
binder	unitString	reported
[4‑Aminomethyl‑phenylacetyl]SEWQ[Dab][AEF][2Nal][αMeL]E[Dab]H[3Pal]-NH2 (lactam (positions not given here); lactam 3-6; not fully specified (bridges)) [Compound 12]	%	104
[4‑Aminomethyl‑phenylacetyl]SCWQC[AEF][2Nal][αMeL]E[Dab]-NH2 (lactam N-10; bridge 3-6; not fully specified (bridges); printed as [4-Aminomethyl-phenylacetyl](1c)*SC(2a)WQC(2a)[Y(2-aminoethoxy)][2-Nal][2-Me-Leu]E(1c)[Dab]-[NH2]) [Ref 82]	%	103
[4‑Aminomethyl‑phenylacetyl]SEWQ[Dab][AEF][2Nal][αMeL]EQ[3Pal]-NHMe (lactam N-10, 3-6; SMILES CNC(=O)[C@H](Cc1cccnc1)NC(=O)[C@H](CCC(N)=O)NC(=O)[C@@H]1CCC(=O)NCc2ccc(cc2)CC(=O)N[C@@H](CO)C(=O)N[C@H]2CCC(=O)NCC[C@H](NC(=O)[C@H](CCC(N)=O)NC(=O)[C@H](Cc3c[nH]c4ccccc34)NC2=O)C(=O)N[C@@H](Cc2ccc(OCCN)cc2)C(=O)N[C@@H](Cc2ccc3ccccc3c2)C(=O)N[C@@](C)(CC(C)C)C(=O)N1) [Compound 33]	%	92

Here is the next item to consider.
Looking for the measured % displacement (hIL-23R binding) of [4‑Aminomethyl‑phenylacetyl]SEWK(Ac)[Dab][AEF][2Nal][αMeL]E[Dab][3Pal]-NHMe (lactam N-10, 3-6; SMILES CNC(=O)[C@H](Cc1cccnc1)NC(=O)[C@H](CCN)NC(=O)[C@@H]1CCC(=O)NCc2ccc(cc2)CC(=O)N[C@@H](CO)C(=O)N[C@H]2CCC(=O)NCC[C@H](NC(=O)[C@H](CCCCNC(C)=O)NC(=O)[C@H](Cc3c[nH]c4ccccc34)NC2=O)C(=O)N[C@@H](Cc2ccc(OCCN)cc2)C(=O)N[C@@H](Cc2ccc3ccccc3c2)C(=O)N[C@@](C)(CC(C)C)C(=O)N1) [Compound 24] , can you help? 97
